Give measured residual activity for each item. Keep answers brief.
Tgt: PAK3 (human)
Method Notes: radiometric filter-binding kinase assay, Kinase HotSpot
Test Conditions: compound 0.5 µM; ATP 10 µM
# output: bare number, implied unit %

Given "Oc1cccc(-c2nc(N3CCOCC3)c3oc4ncccc4c3n2)c1" , state its recorded residual activity. 97.5

Given "CNc1cc2c(Nc3cccc(Br)c3)ncnc2cn1" , state its recorded residual activity. 98.8

Given "O=C1NC(=O)c2c1c1c3ccccc3n3c1c1c2c2ccccc2n1C1CCC3O1" , state its recorded residual activity. 41.7

Given "c1ccc(-c2n[nH]c3c2oc2ccccc23)cc1" , state its recorded residual activity. 89.2

Given "O=C1Nc2ccc(Cl)cc2/C1=C/c1cc(Cl)c(O)c(Cl)c1" , state its recorded residual activity. 94.3

Given "N#CC(C#N)=C(N)/C(C#N)=C/c1ccc(O)cc1" , state its recorded residual activity. 98.4

Given "Cc1ccc(S(=O)(=O)/C=C/C#N)cc1" , state its recorded residual activity. 105

Given "O=C(Nc1cccc(Nc2nccc(Nc3cccc(C(F)(F)F)c3)n2)c1)C1CC1" , state its recorded residual activity. 98.9

Given "Nc1cccc(-c2cc3c(Oc4cccc(O)c4)ncnc3[nH]2)c1" , state its recorded residual activity. 79.8

Given "O=C1NC(=O)C(c2cn(CCCn3ccnc3)c3ccccc23)=C1Nc1ccccc1" , state its recorded residual activity. 100

Given "CNC(=O)c1cc(Oc2ccc(NC(=O)Nc3ccc(Cl)c(C(F)(F)F)c3)cc2)ccn1" , state its recorded residual activity. 103
